All values here come from patent US20230272055A1.

Target: T1, Recombinant MBP-mutCALR Type 1 fusion protein (human)
T1 construct: custom made at Cepter; also called recombinant mutCALR protein
Test: SPR, IgG captured, 1:1 fit, Exp. 1
Quantity Name: koff (s⁻¹)
# output: bare number, implied unit s⁻¹

# input Entry anti-mutCALR antibody clone 40 (antibody, human IgG1, lambda, V domains shown, human IgG1) VH: EVQLVQSGAEVKKPGASVKVSCKVSGYTLTESSMHWVRQAPGKGLEWMGLVDPEDGETIYAQKFQGRVTMTEDTSTDTAYMELSSLRSEDTAVYYCAREEWSGDGDDAFDIWGQGTMVTVSS VL: QSVLTQPPSVSAAPGQKVTISCSGSSSNIGSYSVSWYQQLPGTAPKLLIYDNNKRPSGIPDRFSGSNSGTSATLGITGLQTGDEADYYCGTWDSSLSAWVFGGGTKLTVLG : reported koff = ?
# output 0.00538

# input Consider the binder anti-mutCALR antibody clone 28 (antibody, human IgG1, lambda, V domains shown, human IgG1) VH: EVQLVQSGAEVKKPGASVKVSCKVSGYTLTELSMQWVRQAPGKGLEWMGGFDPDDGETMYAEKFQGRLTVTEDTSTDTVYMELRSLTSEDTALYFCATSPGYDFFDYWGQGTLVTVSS VL: SYELTQPPSVSVAPGQTARITCGGNNIGSKSVHWYQQKPGQAPVLVVYDDSDRPSGIPERFSGSNSGNTATLTISRVEAGDEADYYCQVWDADSDQLIFGGGTKLTVLG and give its measured koff.
# output 0.00897

# input binder: anti-mutCALR antibody clone 20 (antibody, human IgG1, lambda, V domains shown, human IgG1) VH: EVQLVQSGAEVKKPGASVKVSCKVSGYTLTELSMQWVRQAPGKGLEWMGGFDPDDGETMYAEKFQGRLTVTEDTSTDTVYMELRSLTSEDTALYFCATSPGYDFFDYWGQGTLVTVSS VL: SYVLTQPPSVSVAPGKTARITCGGNNIGSKGVHWYQQKPGQAPVLVVYDDSDRPSGIPERFSGSNSGNTATLTINRVEAGDEADYYCQVWDSSNDLLIFGGGTKLTVLG ; wanted: its koff
# output 0.00498
